// provenance: ChEMBL document CHEMBL4680120

Overview of reported half-life across a group of molecules:
# assay-remarks: Half life in human plasma by HPLC analysis
# Type: ADME, cell-free

>  <molecule>
COc1ccc(CC(=O)OCCCNC(=O)CCCCC2CCSS2)cc1OC (stereo not drawn)

>  <value-modifier>
=

>  <half-life, h>
0.62

$$$$
>  <molecule>
COc1ccc(CC(=O)NCCCNC(=O)CCCCC2CCSS2)cc1OC (stereo not drawn)

>  <value-modifier>
>

>  <half-life, h>
12

$$$$
>  <molecule>
COc1cc(/C=C/C(=O)NCCNC(=O)CCCCC2CCSS2)ccc1O (stereo not drawn)

>  <value-modifier>
=

>  <half-life, h>
57.4

$$$$
>  <molecule>
O=C(CCCCC1CCSS1)NCCOC(=O)Cc1ccc(O)c(O)c1 (stereo not drawn)

>  <value-modifier>
=

>  <half-life, h>
1.13

$$$$
>  <molecule>
O=C(CCCCC1CCSS1)NCCNC(=O)Cc1ccc(O)c(O)c1 (stereo not drawn)

>  <value-modifier>
=

>  <half-life, h>
23.1

$$$$
>  <molecule>
O=C(CCCCC1CCSS1)NCCOCCOC(=O)Cc1ccc(O)c(O)c1 (stereo not drawn)

>  <value-modifier>
=

>  <half-life, h>
2.16

$$$$
>  <molecule>
O=C(CCCCC1CCSS1)NCCCCCOC(=O)Cc1ccc(O)c(O)c1 (stereo not drawn)

>  <value-modifier>
=

>  <half-life, h>
0.03

$$$$
>  <molecule>
COc1ccc(/C=C/C(=O)OCCOCCNC(=O)CCCCC2CCSS2)cc1OC (stereo not drawn)

>  <value-modifier>
=

>  <half-life, h>
17.2

$$$$
>  <molecule>
COc1cc(/C=C/C(=O)NCCCNC(=O)CCCCC2CCSS2)ccc1O (stereo not drawn)

>  <value-modifier>
=

>  <half-life, h>
72.4

$$$$
>  <molecule>
O=C(CCCCC1CCSS1)NCCCCNC(=O)Cc1ccc(O)c(O)c1 (stereo not drawn)

>  <value-modifier>
=

>  <half-life, h>
1.49

$$$$
>  <molecule>
O=C(CCCCC1CCSS1)NCCCOC(=O)Cc1ccc(O)c(O)c1 (stereo not drawn)

>  <value-modifier>
=

>  <half-life, h>
0.75

$$$$
>  <molecule>
COc1ccc(/C=C/C(=O)NCCCCNC(=O)CCCCC2CCSS2)cc1OC (stereo not drawn)

>  <value-modifier>
=

>  <half-life, h>
36.4

$$$$
>  <molecule>
O=C(CCCCC1CCSS1)NCCCNC(=O)Cc1ccc(O)c(O)c1 (stereo not drawn)

>  <value-modifier>
=

>  <half-life, h>
9.21

$$$$

====

# assay-remarks: Stability in simulated intestinal fluid at pH 6.8 assessed as relative difference measured after 180 mins in presence of pancreatin by HPLC analysis
# Format: ADME
# reported-conditions: simulated gi fluid, pH 6.8, 3 h
endpoint-label: fold change (FC) (%)

>  <compound>
O=C(CCCCC1CCSS1)NCCOC(=O)Cc1ccc(O)c(O)c1 (stereo not given)

>  <reported-measurement>
100

$$$$
>  <compound>
O=C(CCCCC1CCSS1)NCCNC(=O)Cc1ccc(O)c(O)c1 (stereo not given)

>  <reported-measurement>
4.32

$$$$
>  <compound>
COc1cc(/C=C/C(=O)NCCNC(=O)CCCCC2CCSS2)ccc1O (stereo not given)

>  <reported-measurement>
4.8

$$$$
>  <compound>
COc1cc(/C=C/C(=O)NCCCNC(=O)CCCCC2CCSS2)ccc1O (stereo not given)

>  <reported-measurement>
3.46

$$$$
>  <compound>
O=C(CCCCC1CCSS1)NCCCCNC(=O)Cc1ccc(O)c(O)c1 (stereo not given)

>  <reported-measurement>
88.91

$$$$
>  <compound>
O=C(CCCCC1CCSS1)NCCCNC(=O)Cc1ccc(O)c(O)c1 (stereo not given)

>  <reported-measurement>
90.2

$$$$
>  <compound>
COc1ccc(CC(=O)NCCCNC(=O)CCCCC2CCSS2)cc1OC (stereo not given)

>  <reported-measurement>
2.09

$$$$
>  <compound>
O=C(CCCCC1CCSS1)NCCOCCOC(=O)Cc1ccc(O)c(O)c1 (stereo not given)

>  <reported-measurement>
100

$$$$
>  <compound>
COc1ccc(/C=C/C(=O)OCCOCCNC(=O)CCCCC2CCSS2)cc1OC (stereo not given)

>  <reported-measurement>
40.3

$$$$
>  <compound>
COc1ccc(/C=C/C(=O)NCCCCNC(=O)CCCCC2CCSS2)cc1OC (stereo not given)

>  <reported-measurement>
34.75

$$$$
